Source of measurements: paper PMC10163920

- assayed target: profilin-1 G118V (ALS-associated variant) (UniProt P07737 1-140, G118V)
- Sequence (P07737 whole entry G118V): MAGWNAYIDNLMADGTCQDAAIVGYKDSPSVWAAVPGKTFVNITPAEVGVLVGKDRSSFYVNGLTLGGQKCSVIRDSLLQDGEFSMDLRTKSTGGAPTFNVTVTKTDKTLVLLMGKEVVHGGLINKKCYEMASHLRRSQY
- experiment notes: fluorescence polarisation
Ends that are not written are not given here.
reported property: pKd
Worth noting: pKd values are minus log10 of concentrations stated in mol/L.

Recorded pKd for IPPPPPLPGVASIPPPPPLPG (also: FITC, position not given here) [FITC-mDia1-derived poly-L-proline (PLP) peptide] , please?
5.68
